The origin of these recorded values is ChEMBL document CHEMBL1158115.

System: AGS
Test: Cytotoxicity against human AGS cells by MTT assay
Type: functional, cell-based
MEASUREMENT NAME: pIC50
Numbers only, as −log10 of the molar value.

>>> reported_measurement("CCC(C)C(=O)c1c(O)cc(O)c2c1O[C@](C)(CC/C=C(\\C)CCC=C(C)C)[C@@H](CC=C(C)C)C2 (some centres not stated) [PROLIFICIN A]")
4.49

Given the entry COc1cccc2c1C(=O)c1c(O)c3c(c(O)c1C2=O)C[C@@](O)(C(=O)CO)C[C@@H]3O[C@H]1C[C@H](N)[C@H](O)[C@H](C)O1 [DOXORUBICIN] , report its measured pIC50.
6.51
